- TEST_TARGET: Androgen receptor (AR) (Homo sapiens, UniProt P10275, T878A)
- Construct: 5.5×10^5 LNCap cells were injected into each well of a 6-well plate; endogenous in cells; host or cells: LNCaP
- Sequence (P10275 whole entry T878A): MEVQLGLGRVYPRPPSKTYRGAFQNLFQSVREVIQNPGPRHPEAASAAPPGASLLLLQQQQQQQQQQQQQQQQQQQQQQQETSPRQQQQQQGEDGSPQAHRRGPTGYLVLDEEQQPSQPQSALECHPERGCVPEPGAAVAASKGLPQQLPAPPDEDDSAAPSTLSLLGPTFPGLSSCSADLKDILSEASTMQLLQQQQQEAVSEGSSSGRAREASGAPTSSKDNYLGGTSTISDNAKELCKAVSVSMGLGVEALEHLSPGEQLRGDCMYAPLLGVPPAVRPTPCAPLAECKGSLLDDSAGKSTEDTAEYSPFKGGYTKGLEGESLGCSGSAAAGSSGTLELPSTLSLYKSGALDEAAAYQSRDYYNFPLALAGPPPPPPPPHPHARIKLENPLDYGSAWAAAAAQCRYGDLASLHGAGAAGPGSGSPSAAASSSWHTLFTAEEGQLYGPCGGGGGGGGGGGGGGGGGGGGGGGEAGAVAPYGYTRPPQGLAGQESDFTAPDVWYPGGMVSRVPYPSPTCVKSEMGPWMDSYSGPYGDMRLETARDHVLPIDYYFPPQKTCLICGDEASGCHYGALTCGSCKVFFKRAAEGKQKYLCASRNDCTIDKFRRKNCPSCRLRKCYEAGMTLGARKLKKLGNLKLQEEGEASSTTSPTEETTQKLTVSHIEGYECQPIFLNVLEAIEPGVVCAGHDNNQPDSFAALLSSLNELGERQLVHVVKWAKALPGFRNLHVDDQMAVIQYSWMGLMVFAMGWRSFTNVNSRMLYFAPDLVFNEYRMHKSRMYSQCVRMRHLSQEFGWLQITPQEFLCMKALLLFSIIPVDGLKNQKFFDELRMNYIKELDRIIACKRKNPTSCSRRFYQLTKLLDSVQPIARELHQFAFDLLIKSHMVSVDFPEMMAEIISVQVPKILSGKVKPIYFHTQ
- TEST_DESCRIPTION: Assessment of AR proteolytic activity (Western blotting of LNCap cell lysates)
- Format: cell-based
- TEST_CONDITIONS: 24 hours of treatment, Western blotting quantified with Image J
Kindly state Degradation (1 μM treated in LNCaP, % AR remaining) for each of the entries shown.
Numbers only, in %.

Below: 5 compounds and their reported Degradation (1 μM treated in LNCaP, % AR remaining).
COMPOUND	VAL
CC1(C)[C@H](NC(=O)c2ccc(C#CC3CCN(C(=O)COc4ccc5nnn(C6CCC(=O)NC6=O)c(=O)c5c4)CC3)cc2)C(C)(C)[C@H]1Oc1ccc(C#N)c(Cl)c1 (some centres unmarked)	14.7
CC1(C)[C@H](NC(=O)c2ccc(N3CCC(CN4CCC5(CC4)CN(c4ccc6nnn(C7CCC(=O)NC7=O)c(=O)c6c4)C5)CC3)nc2)C(C)(C)[C@H]1Oc1ccc(C#N)c(Cl)c1 (some centres unmarked)	7
CC1(C)C(NC(=O)c2ccc(N3CCN(C(=O)CN4CCN(c5ccc6nnn(C7CCC(=O)NC7=O)c(=O)c6c5)CC4)CC3)cc2)C(C)(C)C1Oc1ccc(C#N)c(Cl)c1 (centres unmarked)	13.3
CC1(C)C(NC(=O)c2ccc(N3CCN(CC4CCN(c5ccc6nnn(C7CCC(=O)NC7=O)c(=O)c6c5)CC4)CC3)nc2)C(C)(C)C1Oc1ccc(C#N)c(Cl)c1 (centres unmarked)	24
CC1(C)[C@H](NC(=O)c2ccc(N3CCN(C4CC5(CCN(C(=O)C6CN(c7ccc8nnn(C9CCC(=O)NC9=O)c(=O)c8c7)C6)CC5)C4)CC3)cc2)C(C)(C)[C@H]1Oc1ccc(C#N)c(Cl)c1 (some centres unmarked)	21

List reported Degradation (1 μM treated in LNCaP, % AR remaining) for each of these compounds:
1. CC1(C)C(NC(=O)c2ccc(N3CC[C@H](CN4CCC5(CC4)CN(c4ccc6c(=O)n(C7CCC(=O)NC7=O)nnc6c4)C5)C3)nc2)C(C)(C)C1Oc1ccc(C#N)c(Cl)c1 (some centres unmarked)
2. CC1(C)C(NC(=O)c2ccc(N3CCC4(CC3)CN(CC3CN(c5ccc6nnn(C7CCC(=O)NC7=O)c(=O)c6c5)C3)C4)nc2)C(C)(C)C1Oc1ccc(C#N)c(Cl)c1 (centres unmarked)

14
6

Count: 7. Required value per item: Degradation (1 μM treated in LNCaP, % AR remaining).
1. CC1(C)[C@H](NC(=O)c2ccc(N3CCN(CC4(F)CCN(C(=O)C5CN(c6ccc7nnn(C8CCC(=O)NC8=O)c(=O)c7c6)C5)CC4)CC3)cc2)C(C)(C)[C@H]1Oc1ccc(C#N)c(Cl)c1 (some centres unmarked)
2. CC1(C)[C@H](NC(=O)c2ccc(N3CC[C@H](CN4CC5(C4)CN(c4ccc6c(=O)n(C7CCC(=O)NC7=O)nnc6c4)C5)C3)nc2)C(C)(C)[C@H]1Oc1ccc(C#N)c(Cl)c1 (some centres unmarked)
3. CC1(C)[C@H](NC(=O)c2ccc(N3CCN(CCC4CCN(C(=O)C5CCN(c6ccc7nnn(C8CCC(=O)NC8=O)c(=O)c7c6)CC5)CC4)CC3)cc2)C(C)(C)[C@H]1Oc1ccc(C#N)c(Cl)c1 (some centres unmarked)
4. CC1(C)C(NC(=O)c2ccc(N3CCN(C(=O)COc4ccc5nnn(C6CCC(=O)NC6=O)c(=O)c5c4)CC3)cc2)C(C)(C)C1Oc1ccc(C#N)c(Cl)c1 (centres unmarked)
5. CC1(C)C(NC(=O)c2ccc(C#CCN3CCN(c4ccc5c(=O)n(C6CCC(=O)NC6=O)nnc5c4)CC3)nc2)C(C)(C)C1Oc1ccc(C#N)c(Cl)c1 (centres unmarked)
6. CC1(C)[C@H](NC(=O)c2ccc(C3CCN(CCOC4CCN(C(=O)C5CCN(c6ccc7nnn(C8CCC(=O)NC8=O)c(=O)c7c6)CC5)CC4)CC3)cc2)C(C)(C)[C@H]1Oc1ccc(C#N)c(Cl)c1 (some centres unmarked)
7. CC1(C)C(NC(=O)c2ccc(-c3cnn(C4CCN(CC5CCN(c6ccc7nnn(C8CCC(=O)NC8=O)c(=O)c7c6)CC5)CC4)c3)cc2)C(C)(C)C1Oc1ccc(C#N)c(Cl)c1 (centres unmarked)

1. 6
2. 11
3. 7
4. 12.3
5. 56
6. 20
7. 18

// each compound listed below needs its Degradation (1 μM treated in LNCaP, % AR remaining)
1. CC1(C)C(NC(=O)c2ccc(OCCOCCOCCOCCOCCOCCCCNc3ccc4nnn(C5CCC(=O)NC5=O)c(=O)c4c3)cc2)C(C)(C)C1Oc1ccc(C#N)c(Cl)c1 (centres unmarked)
2. CC1(C)C(NC(=O)c2ccc(OCCOCCOCCOCCOCCNc3cccc4nnn(C5CCC(=O)NC5=O)c(=O)c34)cc2)C(C)(C)C1Oc1ccc(C#N)c(Cl)c1 (centres unmarked)
3. CC1(C)[C@H](NC(=O)c2ccc(N3CCN(CC4CCN(CC5CN(c6ccc7nnn(C8CCC(=O)NC8=O)c(=O)c7c6)C5)CC4)CC3)cc2)C(C)(C)[C@H]1Oc1ccc(C#N)c(Cl)c1 (some centres unmarked)
4. CC1(C)C(NC(=O)c2ccc(N3CC[C@@H](CN4CC5(CCN(c6ccc7c(=O)n(C8CCC(=O)NC8=O)nnc7c6)CC5)C4)C3)nc2)C(C)(C)C1Oc1ccc(C#N)c(Cl)c1 (some centres unmarked)

1: 6.7; 2: 100; 3: 88; 4: 27

Each compound below has a reported value. Please supply its Degradation (1 μM treated in LNCaP, % AR remaining).
1. CC1(C)C(NC(=O)c2ccc(C3CCN(CCOC4CCN(C(=O)C5CN(c6ccc7nnn(C8CCC(=O)NC8=O)c(=O)c7c6)C5)CC4)CC3)cc2)C(C)(C)C1Oc1ccc(C#N)c(Cl)c1 (centres unmarked)
2. CC1(C)C(NC(=O)c2ccc(N3CCN(CCCC4CCN(C(=O)C5CCN(c6ccc7nnn(C8CCC(=O)NC8=O)c(=O)c7c6)CC5)CC4)CC3)cc2)C(C)(C)C1Oc1ccc(C#N)c(Cl)c1 (centres unmarked)

1. 9
2. 15.6

====

- Tested on: LNCaP cells
- TEST_DESCRIPTION: Cytotoxicity assessment (Cell-titer-glo cell viability), LNCaP
- TEST_CONDITIONS: read-out: LNCAP (CC50); LNCaP cells, 6 days of treatment, Cell-titer-glo, vs DMSO
ENDPOINT_LABEL: CC50 (µM)
Numbers only, in µM.

Here's what some known entries look like.
COMPOUND	TEST_TARGET	READOUT_UNIT	CC50
CC1(C)[C@H](NC(=O)c2ccc(OCCOCCOCCOCCOCCOCCNc3cccc4nnn(C5CCC(=O)NC5=O)c(=O)c34)cc2)C(C)(C)[C@H]1Oc1ccc(C#N)c(Cl)c1 (some centres unmarked)	LNCaP cells	µM	5.69
CC1(C)[C@H](NC(=O)c2ccc(N3CCN(C4CC5(CCN(C(=O)COc6ccc7nnn(C8CCC(=O)NC8=O)c(=O)c7c6)CC5)C4)CC3)cc2)C(C)(C)[C@H]1Oc1ccc(C#N)c(Cl)c1 (some centres unmarked)	LNCaP cells	µM	0.196
CC1(C)C(NC(=O)c2ccc(OCCOCCOCCOCCOCCOCCOCCCCNc3cccc4nnn(C5CCC(=O)NC5=O)c(=O)c34)cc2)C(C)(C)C1Oc1ccc(C#N)c(Cl)c1 (centres unmarked)	LNCaP cells	µM	5.93
CC1(C)C(NC(=O)c2ccc(CCN3CCN(CC4CCN(c5ccc6nnn(C7CCC(=O)NC7=O)c(=O)c6c5)CC4)CC3)cc2)C(C)(C)C1Oc1ccc(C#N)c(Cl)c1 (centres unmarked)	LNCaP cells	µM	0.0372

Data request, read-out CC50, for CC1(C)[C@H](NC(=O)c2ccc(N3CCN(C4CC5(CCN(c6ccc7nnn(C8CCC(=O)NC8=O)c(=O)c7c6)CC5)C4)CC3)cc2)C(C)(C)[C@H]1Oc1ccc(C#N)c(Cl)c1 (some centres unmarked)
0.302

====

- Test system: VCaP cells
- TEST_DESCRIPTION: Cytotoxicity assessment (Cell-titer-glo cell viability), VCaP
- TEST_CONDITIONS: read-out: VCaP (CC50); VCaP cells, 6 days of treatment, Cell-titer-glo, vs DMSO
ENDPOINT_LABEL: log10 CC50 (log10 of the value in nM)
Heads up: the numbers are on a log10 scale; they represent CC50 in nM.

Below, each entry is followed by its recorded log10 CC50 result.
COMPOUND	log10 CC50
CC1(C)[C@H](NC(=O)c2ccc(C3CCN(CCOC4CCN(C(=O)C5CCN(c6ccc7nnn(C8CCC(=O)NC8=O)c(=O)c7c6)CC5)CC4)CC3)cc2)C(C)(C)[C@H]1Oc1ccc(C#N)c(Cl)c1 (some centres unmarked) [Example 74]	1.86
CC1(C)[C@H](NC(=O)c2ccc(N3CCN(C4CC5(CCN(C(=O)CNc6ccc7nnn(C8CCC(=O)NC8=O)c(=O)c7c6)CC5)C4)CC3)cc2)C(C)(C)[C@H]1Oc1ccc(C#N)c(Cl)c1 (some centres unmarked) [Example 19]	1.88
CC1(C)C(NC(=O)c2ccc(-c3cnn(C4CCN(CC5CCN(C(=O)CNc6ccc7nnn(C8CCC(=O)NC8=O)c(=O)c7c6)CC5)CC4)c3)cc2)C(C)(C)C1Oc1ccc(C#N)c(Cl)c1 (centres unmarked) [Example 112]	1.20
CC1(C)C(NC(=O)c2ccc(C#CC3CCN(C(=O)C4CN(c5ccc6nnn(C7CCC(=O)NC7=O)c(=O)c6c5)C4)CC3)cc2)C(C)(C)C1Oc1ccc(C#N)c(Cl)c1 (centres unmarked) [Example 95]	0.65

Data request, read-out log10 CC50, for CC1(C)C(NC(=O)c2ccc(-n3cc(CN4CCN(C(=O)C5CCN(c6ccc7nnn(C8CCC(=O)NC8=O)c(=O)c7c6)CC5)CC4)nn3)cc2)C(C)(C)C1Oc1ccc(C#N)c(Cl)c1 (centres unmarked) [Example 121]
1.26
